Value source: paper PMC6351562

- Assay Target: Ruminococcus gnavus GUS (RgGUS) (Mediterraneibacter gnavus)
- Sequence (A0A2N5PVZ8 1-603): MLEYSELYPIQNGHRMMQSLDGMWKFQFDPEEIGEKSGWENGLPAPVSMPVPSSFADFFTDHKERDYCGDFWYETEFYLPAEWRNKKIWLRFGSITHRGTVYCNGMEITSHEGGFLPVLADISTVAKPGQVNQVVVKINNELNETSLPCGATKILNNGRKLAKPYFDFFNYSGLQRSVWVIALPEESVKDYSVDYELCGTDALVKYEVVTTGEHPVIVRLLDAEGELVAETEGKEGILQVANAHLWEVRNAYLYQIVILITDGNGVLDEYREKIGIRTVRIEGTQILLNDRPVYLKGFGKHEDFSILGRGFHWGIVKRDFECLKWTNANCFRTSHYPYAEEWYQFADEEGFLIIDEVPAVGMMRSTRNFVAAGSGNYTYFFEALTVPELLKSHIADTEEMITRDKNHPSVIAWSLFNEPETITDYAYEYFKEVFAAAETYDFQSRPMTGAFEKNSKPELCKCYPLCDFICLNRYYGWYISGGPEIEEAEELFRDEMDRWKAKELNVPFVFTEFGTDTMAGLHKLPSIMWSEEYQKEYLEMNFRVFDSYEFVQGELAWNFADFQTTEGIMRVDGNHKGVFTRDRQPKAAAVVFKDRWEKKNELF
- Assay Overview: In vitro inhibition assay (pNPG hydrolysis)
- Type: biochemical
- Experimental Setup: read-out: UNC10201652 (IC50, nM) pH 6.5
Observed Property: IC50

Lookup: IC50 / Ruminococcus gnavus GUS (RgGUS) (Mediterraneibacter gnavus) / C1CCc2c(c(N3CCOCC3)nc3sc4c(N5CCNCC5)nnnc4c23)C1 [UNC10201652]
> 100000 nM

----------
- Assay Target: Bacteroides dorei GUS (BdGUS) (Phocaeicola dorei, UniProt I9FNR0)
- Sequence (I9FNR0 21-875): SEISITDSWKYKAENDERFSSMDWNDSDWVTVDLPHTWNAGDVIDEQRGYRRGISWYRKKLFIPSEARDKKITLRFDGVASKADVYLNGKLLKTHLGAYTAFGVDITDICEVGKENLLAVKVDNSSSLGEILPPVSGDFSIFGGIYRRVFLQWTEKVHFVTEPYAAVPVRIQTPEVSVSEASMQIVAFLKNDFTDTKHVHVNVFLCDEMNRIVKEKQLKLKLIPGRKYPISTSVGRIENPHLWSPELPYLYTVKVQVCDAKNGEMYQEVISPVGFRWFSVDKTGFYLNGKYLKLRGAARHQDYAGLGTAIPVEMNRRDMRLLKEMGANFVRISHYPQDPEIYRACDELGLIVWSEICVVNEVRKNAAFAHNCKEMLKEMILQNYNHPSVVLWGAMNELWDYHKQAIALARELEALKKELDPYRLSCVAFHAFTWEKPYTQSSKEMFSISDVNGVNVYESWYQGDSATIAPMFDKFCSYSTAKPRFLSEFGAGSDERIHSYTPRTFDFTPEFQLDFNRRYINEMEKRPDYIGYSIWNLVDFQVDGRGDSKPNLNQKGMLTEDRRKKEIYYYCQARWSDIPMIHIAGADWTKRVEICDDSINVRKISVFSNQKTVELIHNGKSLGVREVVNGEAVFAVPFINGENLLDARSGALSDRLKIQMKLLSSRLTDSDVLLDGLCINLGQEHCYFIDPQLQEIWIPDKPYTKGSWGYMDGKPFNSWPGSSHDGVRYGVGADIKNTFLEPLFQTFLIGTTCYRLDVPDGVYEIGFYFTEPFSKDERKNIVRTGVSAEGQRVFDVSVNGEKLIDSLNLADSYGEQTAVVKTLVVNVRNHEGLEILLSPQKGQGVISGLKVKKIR
- Assay Overview: In vitro inhibition assay (pNPG hydrolysis)
- Assay type: biochemical
- Experimental Setup: pH 6.5; pNPG 900 µM; read-out: UNC10201652 (IC50, nM) pH 6.5
Observed Property: IC50

Value lookup for IC50; key = C1CCc2c(c(N3CCOCC3)nc3sc4c(N5CCNCC5)nnnc4c23)C1
> 100000 nM
